Molecular target: T1, Ep-CAM (UniProt P16422 24-265, limits assumed)
T1 sequence (looked up): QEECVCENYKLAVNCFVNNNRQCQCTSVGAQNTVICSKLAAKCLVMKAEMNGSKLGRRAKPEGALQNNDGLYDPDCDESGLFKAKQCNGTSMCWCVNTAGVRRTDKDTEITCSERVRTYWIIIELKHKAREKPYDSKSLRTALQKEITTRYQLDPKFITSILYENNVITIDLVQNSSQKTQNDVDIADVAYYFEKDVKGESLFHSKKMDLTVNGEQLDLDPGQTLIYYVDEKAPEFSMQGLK
Assay: Biacore, Fab periplasmic extract on immobilised Epcam
property: binding result

INSERT INTO measurements (binder, observed_value) VALUES
  ('ING-1 Fab, heavy chain Y105P (Fab, V domains shown, Fab in periplasmic extract) VH: QIQLVQSGPELKKPGETVKISCKASGYTFTKYGMNWVKQAPGKGLKWMGWINTYTEEPTYGDDFKGRFAFSLETSASTANLQINNLKSEDTATYFCARFGSAVDPWGQGTSVTVSS VL: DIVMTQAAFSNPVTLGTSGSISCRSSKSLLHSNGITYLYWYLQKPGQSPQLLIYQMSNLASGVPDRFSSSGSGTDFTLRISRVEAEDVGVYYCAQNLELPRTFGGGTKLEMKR', 'no binding'),
  ('ING-1 Fab, heavy chain T59P (Fab, V domains shown, Fab in periplasmic extract) VH: QIQLVQSGPELKKPGETVKISCKASGYTFTKYGMNWVKQAPGKGLKWMGWINTYTEEPPYGDDFKGRFAFSLETSASTANLQINNLKSEDTATYFCARFGSAVDYWGQGTSVTVSS VL: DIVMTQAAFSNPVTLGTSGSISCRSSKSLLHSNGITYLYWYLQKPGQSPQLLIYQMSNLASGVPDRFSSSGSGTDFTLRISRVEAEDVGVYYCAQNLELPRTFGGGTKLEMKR', 'no binding'),
  ('ING-1 Fab, heavy chain N52A (Fab, V domains shown, Fab in periplasmic extract) VH: QIQLVQSGPELKKPGETVKISCKASGYTFTKYGMNWVKQAPGKGLKWMGWIATYTEEPTYGDDFKGRFAFSLETSASTANLQINNLKSEDTATYFCARFGSAVDYWGQGTSVTVSS VL: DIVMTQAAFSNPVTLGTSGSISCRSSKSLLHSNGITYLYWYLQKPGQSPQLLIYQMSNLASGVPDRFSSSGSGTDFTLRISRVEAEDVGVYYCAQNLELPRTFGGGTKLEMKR', 'no binding');
